Source of measurements: patent US20210107981A1

Measured target: T1, Human PD-1 (ACROBiosystems, Inc., Catalog No. PD1-H5221) (human, UniProt Q15116 25-167)
T1 construct: Bought recombinant protein; also called huPD1-His; PD-1-his; not shown: His tag of the bought protein (huPD1-His)
T1 sequence (Q15116 25-167 limits assumed): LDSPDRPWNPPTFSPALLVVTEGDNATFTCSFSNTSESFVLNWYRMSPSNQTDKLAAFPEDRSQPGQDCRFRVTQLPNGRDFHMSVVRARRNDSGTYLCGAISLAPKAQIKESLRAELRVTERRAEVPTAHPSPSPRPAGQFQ
Test details: SPR (Biacore), scFv captured on anti-FLAG, PD-1 as analyte
Endpoint name: koff (s⁻¹)

h1E9-4 (VH3-7-Vκ1-9) scFv (scFv, Whole scFv chain with FlagHis tag) scFv: MEVQLVESGGGLVQPGGSLRLSCAASGFTFSTFGMSWVRQAPGKGLEWVATISGGGSDTYYPDSVQGRFTISRDNAKNSLYLQMNSLRAEDTAVYYCARQGYDVYSWFAYWGQGTLVTVSSGGGGSGGGGSGGGGSDIQLTQSPSFLSASVGDRVTITCRASESVDNSGISFMSWYQQKPGKAPKLLIYTASNQGSGVPSRFSGSGSGTEFTLTISSLQPEDFATYYCQQSKEVPWTFGQGTKVEIKGSGDYKDDDDKGSGHHHHHH : 0.000679
h4B10-1 (VH3-15-Vκ3-11) scFv (scFv, Whole scFv chain with FlagHis tag) scFv: MEVQLVESGGGLVKPGGSLRLSCAASGFTFSTYGMSWVRQAPGKGLEWVATISGGGSNTYYSDSVKGRFTISRDDSKNTLYLQMNSLKTEDTAVYYCARQRDSAWFASWGQGTLVTVSSGGGGSGGGGSGGGGSEIVLTQSPATLSLSPGERATLSCRASENVDDYGVSFMNWYQQKPGQAPRLLIYPASNQGSGIPARFSGSGSGTDFTLTISSLEPEDFAVYYCQQSKEVPWTFGQGTKVEIKGSGDYKDDDDKGSGHHHHHH : 0.00299
m1B10 scFv (scFv, Mouse single-chain antibody, whole chain with FlagHis tag) scFv: MSDVQLQESGPGLVKPSQSLSLTCTVTGHSITSDYAWNWIRQFPGNKLEWMGYISYSGRTSYNPSLTSRISITRDTSKNQFFLQLNSVTTEDTATYYCARGYALDYWGQGTSVTVSSGGGGSGGGGSGGGGSQIVLSQSPAILSASPGEKVTMTCRTSSSVNYMHWFQQKPGSSPKPWIYATSKLASGVPARFSGSGSGTSYSLTISRVEAEDAATYFCQQWISDPWTFGGGTKLEIKGSGDYKDDDDKGSGHHHHHH : 0.00239
